experiment: chemical genetic growth profiling, strain panel (AID 1159580);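 also: tested at 20 µM; growth read once vehicle control cultures reached saturation at 30 °C; 1 = growth at the plate median or of vehicle wells; lower values mean less growth of the strain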; conditions: S. cerevisiae deletion strains, growth OD, locus YJL115W, strain asf1, hits give low values
Hit rate of the full screen: of about 5,500 compounds, about 2,000 (36%) were called active. Not shown: some 18% with an inconclusive outcome. The list shows a part of the results.
Exercise: state measured normalized growth for each of the compounds provided.
Response field accepts a number only; no unit should be typed.

Prompt: Endpoint output: normalized growth of Cc1onc(-c2ccccc2)c1-c1ccc(S(N)(=O)=O)cc1 . Value?
Response: 0.998

Prompt: Need normalized growth of CCN1C[C@@]2(COC)C3[C@@H](OC)[C@H]4[C@@H]1[C@]3(C(OC)C[C@H]2O)C1C[C@@]2(O)[C@H](OC(=O)c3ccccc3)C1[C@]4(OC(C)=O)[C@@H](O)[C@@H]2OC (some centres undefined) , thanks.
Response: 1.01

Prompt: Value lookup for normalized growth; key = NC(=O)NC1NC(=O)NC1=O (centres undefined)
Response: 0.997

Prompt: Look up normalized growth: NC(N)=NCCCCN=C(N)N
Response: 0.993

###

assay: chemical genetic growth profiling, strain panel (AID 1159580);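 also: tested at 20 µM; growth read once vehicle control cultures reached saturation at 30 °C; 1 = growth at the plate median or of vehicle wells; lower values mean less growth of the strain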; conditions: S. cerevisiae deletion strains, growth OD, locus YHR094C, strain hxt1, hits give low values
Among all 5,500 compounds or so, about 2,000 (36%) were called active. Not shown: some 18% with an inconclusive outcome. This is one part of the list.
assayReadout: normalized growth
Answer with a number only.

Prompt: Quick one: normalized growth for CC1CCC(NC(=O)N(CCCl)N=O)CC1 (centres undefined) ?
Response: 1.01

Prompt: Entry C[C@@H]1CC[C@H]2C(C)(C)C3CC12CC[C@@]3(C)O (some centres undefined) has what normalized growth?
Response: 0.992

Prompt: Endpoint output: normalized growth of O=C(O)C(O)C(O)C(O)C(O)C(=O)O (centres undefined) . Value?
Response: 0.989

Prompt: Suppose we examine the molecule Clc1ccc(COC(Cn2ccnc2)c2ccc(Cl)cc2Cl)c(Cl)c1 (centres undefined) ; what normalized growth value has been reported?
Response: 0.0654

Prompt: Consider the molecule COP(=S)(OC)Oc1ccc([N+](=O)[O-])cc1 and give its measured normalized growth.
Response: 0.987

Prompt: Given the molecule NCCCC(=O)O , what is its reported normalized growth?
Response: 1.02

Prompt: Returns the measured normalized growth for the input molecule. Input: NC(C(=O)O)C(O)C(=O)O (centres undefined)
Response: 1.02

Prompt: Sample C[C@]12CCC3c4ccc(OC(=O)CCC(=O)O)cc4CCC3C1CCC2=O (some centres undefined) — what was its normalized growth?
Response: 0.993

Prompt: Entry under review: Clc1ccc(COC(Cn2ccnc2)c2ccc(Cl)cc2Cl)cc1 (centres undefined) . Reported normalized growth?
Response: 0.0575

###

assay: chemical genetic growth profiling, strain panel (AID 1159580);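 also: tested at 20 µM; growth read once vehicle control cultures reached saturation at 30 °C; 1 = growth at the plate median or of vehicle wells; lower values mean less growth of the strain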; settings: S. cerevisiae deletion strains, growth OD, locus YMR125W, strain sto1, hits give low values
The whole screen tested about 5,500 compounds, of which about 2,000 (36%) were called active. Inconclusive results (about 18%) are left out. Some of the results follow.
assayReadout: normalized growth
Give the figure only, with no unit attached.

Prompt: What value of normalized growth has been reported for the following molecule? CC12CCCCC1(Br)[N+](=O)N2[O-] (stereo not given)
Response: 1.02

Prompt: Suppose we examine the molecule CC(=O)O[C@]1(C)CC[C@@]23CC1C(C)(C)[C@@H]2CC[C@H]3C ; what normalized growth value has been reported?
Response: 0.966

Prompt: Look at this molecule and give its reported normalized growth. Cc1cc(/C=C/c2ccc3cc(N(C)C)ccc3[n+]2C)c(C)n1-c1ccccc1
Response: 0.819

Prompt: Value lookup for normalized growth; key = C[C@H]1C[C@@H](O)[C@]2(O)[C@@]13CC(=O)OC[C@@]2(C)[C@](C)(O)C(=O)C3
Response: 1.05

Prompt: Fill in: normalized growth of Clc1ccc(C(c2ccccc2Cl)C(Cl)Cl)cc1 (stereo not given) is ___
Response: 0.991
